Molecular target: T1, mouse tissue factor pathway inhibitor (TFPI) (mouse, UniProt O54819 29-289, limits assumed)
T1 construct: bought; also called mTFPI; murine TFPI
T1 sequence (looked up): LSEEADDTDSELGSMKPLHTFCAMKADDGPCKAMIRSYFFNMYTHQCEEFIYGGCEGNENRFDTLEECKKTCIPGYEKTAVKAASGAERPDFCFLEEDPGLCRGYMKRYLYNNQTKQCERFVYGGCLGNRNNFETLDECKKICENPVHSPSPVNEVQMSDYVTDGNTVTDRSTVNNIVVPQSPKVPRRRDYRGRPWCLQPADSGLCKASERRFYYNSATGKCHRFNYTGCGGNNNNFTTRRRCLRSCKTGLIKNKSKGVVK
Assay: equilibrium ELISA
property_measured: variant/wild-type (ratio)
Return type: number; implicit unit ratio.

[Q] Using the record for 4B7 LC_D33R (Fab, V domains shown) VH: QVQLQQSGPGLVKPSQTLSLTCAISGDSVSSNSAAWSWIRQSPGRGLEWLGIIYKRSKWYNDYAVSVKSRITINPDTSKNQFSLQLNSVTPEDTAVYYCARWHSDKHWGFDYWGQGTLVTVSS VL: DIVMTQSPLSLPVTPGEPASISCRSSQSLVFSRGNTYLNWYLQKPGQSPQLLIYKGSNRASGVPDRFSGSGSGTDFTLKISRVEAEDVGVYYCQQYDSYPLTFGQGTKVEIKR , state its measured variant/wild-type.
[A] 7.2

***
[Q] Using the record for 4B7 LC_N35I (Fab, V domains shown) VH: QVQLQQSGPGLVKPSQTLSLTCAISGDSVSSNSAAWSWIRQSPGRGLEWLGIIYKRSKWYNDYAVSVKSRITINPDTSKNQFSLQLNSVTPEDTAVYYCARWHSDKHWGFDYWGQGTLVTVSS VL: DIVMTQSPLSLPVTPGEPASISCRSSQSLVFSDGITYLNWYLQKPGQSPQLLIYKGSNRASGVPDRFSGSGSGTDFTLKISRVEAEDVGVYYCQQYDSYPLTFGQGTKVEIKR , state its measured variant/wild-type.
[A] 7.1
